Experiment: Study PKH-95032-008: Phase 1, open-label, single-dose pharmacokinetics, safety and tolerability in moderate hepatic impairment vs matched normal hepatic function
Type: in vivo, human
Settings: human, plasma, 20 mg, Group B moderate hepatic impairment; 20 mg single dose; geometric mean (geometric CV %); read-out: Cmax
Measured quantity: Cmax (ng/mL)
Could you give me the number in ng/mL? Just the number is fine.

**Query** I am curious: what Cmax value has been reported for C[C@@H](Nc1nc(N[C@H](C)C(F)(F)F)nc(-c2cccc(Cl)n2)n1)C(F)(F)F [vorasidenib] ?
**Result** 38.5

###

Experiment: Study PKH-95032-008: Phase 1, open-label, single-dose pharmacokinetics, safety and tolerability in moderate hepatic impairment vs matched normal hepatic function
Format: in vivo, human
Settings: human, plasma, 20 mg, Group A normal hepatic function; 20 mg single dose; arithmetic mean±StD; read-out: Fu, ave
Measured quantity: fraction unbound
Give your answer as a number; write no unit.

**Query** I am curious: what fraction unbound value has been reported for `C[C@@H](Nc1nc(N[C@H](C)C(F)(F)F)nc(-c2cccc(Cl)n2)n1)C(F)(F)F` ?
**Result** 0.0223

Hello, the source for this data is patent US20260199363A1, in case you need it.
